A collection of compounds and their measured inhibition at 10 µM
TARGET SYSTEM: BTK (Homo sapiens, UniProt Q06187)
Sequence (Q06187 402-655 limits assumed): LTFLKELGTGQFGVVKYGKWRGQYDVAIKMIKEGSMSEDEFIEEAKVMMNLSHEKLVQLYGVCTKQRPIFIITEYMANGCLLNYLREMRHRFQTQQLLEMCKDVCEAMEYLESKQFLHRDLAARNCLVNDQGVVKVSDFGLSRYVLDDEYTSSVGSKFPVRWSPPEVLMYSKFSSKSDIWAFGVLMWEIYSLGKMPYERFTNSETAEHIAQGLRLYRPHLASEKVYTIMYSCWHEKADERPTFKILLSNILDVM
ASSAY COMMENT: biochemical
PARTICULARS: read-out: BTK inhibition (%), 0.75 uM BTK, […] probe 3l, 15 min preincubation
READOUT NAME: inhibition at 10 µM (%)

{"COMPOUND": "O=C(c1cn(Cc2cncn2Cc2ccc(Br)cc2)cc1-c1cccc2ccccc12)N1CCOCC1", "ENDPOINT VALUE": -4.6}
{"COMPOUND": "CC(C)=C[C@H]1C[C@](C)(O)[C@@H]2[C@H]3CC[C@@H]4[C@@]5(C)CC[C@H](O[C@@H]6OC[C@H](O)[C@H](O[C@@H]7O[C@H](CO[C@@H]8O[C@H](CO)[C@@H](O)[C@H](O)[C@H]8O)[C@@H](O)[C@H](O)[C@H]7O[C@@H]7OC[C@@H](O)[C@H](O)[C@H]7O)[C@H]6O[C@@H]6O[C@@H](C)[C@H](O)[C@@H](O)[C@H]6O)C(C)(C)[C@@H]5CC[C@@]4(C)[C@@]34CO[C@@]2(C4)O1", "ENDPOINT VALUE": 10}
{"COMPOUND": "O=C(O)C(Cc1c[nH]c2ccccc12)N1C(=O)c2ccccc2C1=O (stereo not shown)", "ENDPOINT VALUE": 7.6}
{"COMPOUND": "O=c1[nH]c(=O)n([C@H]2C[C@H](O)[C@@H](CO)O2)cc1I", "ENDPOINT VALUE": -27.2}
{"COMPOUND": "CCCCCCCCN=c1ccn(CCCCCCCCCCn2ccc(=NCCCCCCCC)cc2)cc1", "ENDPOINT VALUE": -64.1}
{"COMPOUND": "C=CC(=O)Nc1ccc(CN2C(=O)N(c3cc(OC)cc(OC)c3)Cc3cnc(Nc4ccc(N5CCN(C)CC5)cc4)nc32)cc1", "ENDPOINT VALUE": 88.3}
{"COMPOUND": "O=c1[nH]nc2c3c(cccc13)NC(CN1Cc3ccccc3C1)=N2", "ENDPOINT VALUE": 0.8}
{"COMPOUND": "CC1(C)[C@@H]2CC[C@@]1(C)[C@@H](O)C2", "ENDPOINT VALUE": 3.1}
{"COMPOUND": "COc1cc(/C=C/C(=O)CC(=O)/C=C/c2ccc(O)c(OC)c2)ccc1O", "ENDPOINT VALUE": 102}
{"COMPOUND": "COC(=O)/C=C/c1ccc(O)cc1", "ENDPOINT VALUE": 0}
